EXPERIMENTAL TARGET: heart receptor protein (hERG) (Homo sapiens)
Sequence (Q12809 whole entry): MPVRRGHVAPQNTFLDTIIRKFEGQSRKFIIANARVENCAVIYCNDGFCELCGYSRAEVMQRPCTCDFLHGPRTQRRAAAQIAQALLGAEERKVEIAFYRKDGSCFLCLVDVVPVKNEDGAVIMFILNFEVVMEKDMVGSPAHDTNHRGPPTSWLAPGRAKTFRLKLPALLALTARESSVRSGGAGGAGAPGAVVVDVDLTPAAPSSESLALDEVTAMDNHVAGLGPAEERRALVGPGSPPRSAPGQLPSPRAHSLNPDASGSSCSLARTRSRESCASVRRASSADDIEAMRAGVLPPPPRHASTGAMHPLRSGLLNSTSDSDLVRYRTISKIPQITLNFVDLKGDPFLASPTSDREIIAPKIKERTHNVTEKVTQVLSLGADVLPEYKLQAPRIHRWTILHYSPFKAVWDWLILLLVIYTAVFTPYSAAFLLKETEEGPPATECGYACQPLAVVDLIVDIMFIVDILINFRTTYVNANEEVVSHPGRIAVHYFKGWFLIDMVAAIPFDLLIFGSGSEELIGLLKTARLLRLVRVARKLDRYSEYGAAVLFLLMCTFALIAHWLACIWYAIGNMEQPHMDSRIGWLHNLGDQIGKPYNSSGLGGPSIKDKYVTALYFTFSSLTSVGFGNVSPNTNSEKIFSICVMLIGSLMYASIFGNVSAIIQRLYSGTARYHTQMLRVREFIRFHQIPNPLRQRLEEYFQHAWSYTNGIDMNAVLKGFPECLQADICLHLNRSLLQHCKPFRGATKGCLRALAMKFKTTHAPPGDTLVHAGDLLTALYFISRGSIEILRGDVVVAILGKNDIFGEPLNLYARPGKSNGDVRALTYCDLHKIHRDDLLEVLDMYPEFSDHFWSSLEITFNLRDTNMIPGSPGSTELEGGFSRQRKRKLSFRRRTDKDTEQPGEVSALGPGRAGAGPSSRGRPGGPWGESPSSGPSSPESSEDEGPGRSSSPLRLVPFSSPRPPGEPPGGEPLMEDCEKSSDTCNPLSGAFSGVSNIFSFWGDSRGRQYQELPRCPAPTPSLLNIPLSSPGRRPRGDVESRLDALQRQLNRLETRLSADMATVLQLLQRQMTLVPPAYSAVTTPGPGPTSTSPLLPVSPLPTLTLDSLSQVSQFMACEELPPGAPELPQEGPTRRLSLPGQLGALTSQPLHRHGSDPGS
ASSAY PROTOCOL: biochemical
Source text: The cardiac […] toxicity of drugs was judged by detecting the affinity between drugs and heart receptor protein (hERG) in vitro.
pIC50: −log10 of the molar value. No end group written: not given here.
VALUE TYPE: pIC50

// pIC50 value for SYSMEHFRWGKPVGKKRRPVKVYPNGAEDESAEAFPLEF [Example 8] : < 5.00

----------
EXPERIMENTAL TARGET: melanocortin receptor 2 (MC2R) (Homo sapiens)
Construct: expressed in transfected cells; host or cells: CHO-K1
Sequence (Q01718 whole entry, species assumed): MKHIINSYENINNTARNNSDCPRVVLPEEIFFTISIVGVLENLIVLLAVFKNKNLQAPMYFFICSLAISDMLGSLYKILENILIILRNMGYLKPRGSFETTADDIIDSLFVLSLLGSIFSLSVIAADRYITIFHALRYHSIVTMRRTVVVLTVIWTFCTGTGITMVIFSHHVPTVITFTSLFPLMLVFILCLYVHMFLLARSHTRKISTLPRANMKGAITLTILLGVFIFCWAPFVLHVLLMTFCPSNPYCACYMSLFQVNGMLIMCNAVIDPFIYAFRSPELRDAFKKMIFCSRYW
Sequence (Q8TCY5 whole entry partner, species assumed): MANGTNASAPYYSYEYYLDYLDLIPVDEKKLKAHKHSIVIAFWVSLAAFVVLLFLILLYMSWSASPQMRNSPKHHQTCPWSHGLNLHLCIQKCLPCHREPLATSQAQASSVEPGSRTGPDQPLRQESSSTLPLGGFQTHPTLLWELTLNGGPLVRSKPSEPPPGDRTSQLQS
ASSAY PROTOCOL: Activity in vitro: calcium ion signal in CHO-K1 cells expressing MC2R
Assay type: cell-based
STUDY CONDITIONS: CHO-K1 cells expressing MC2R, calcium ion signal; read-out: EC50 (half inhibitory concentration)
No end group written: not given here.
VALUE TYPE: EC50 (nM)
One number for each entry, in nM.

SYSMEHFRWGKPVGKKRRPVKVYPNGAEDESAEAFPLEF [Example 8]; 180

// EC50 value for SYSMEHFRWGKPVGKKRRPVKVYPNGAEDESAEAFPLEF [Example 10, reference compound] : 288
